# method: Solubility of the compound in HEPES buffer at pH 7.4 after 24 hrs
# Type: physicochemical
For each of the molecules below, state its solubility at 24 h.

For reference, reported solubility at 24 h for `COc1cc(/C=C/C(=O)c2ccc(Cl)cc2)ccc1O` stands at 9 µM

Looking up `COc1cc(/C=C/C(=O)c2ccc(Cl)cc2)ccc1OC(=O)[C@H](N)CO.Cl` , I found its solubility at 24 h recorded as 42 µM

Value of solubility at 24 h reported for the molecule `COc1cc(/C=C/C(=O)c2ccc(Cl)cc2)ccc1OS(=O)(=O)[O-].[Na+]` is 1430 µM

Please fill in: solubility at 24 h reported for `COc1cc(/C=C/C(=O)c2ccc(Cl)cc2)ccc1OP(=O)([O-])[O-].[Na+].[Na+]` = > 30000 µM

====

For each record, write down the corresponding half-life.
# method: Half life in mouse lung homogenate by LC-MS analysis
# Format: ADME, tissue-based

The compound listed as `COc1cc(/C=C/C(=O)c2ccc(Cl)cc2)ccc1OP(=O)([O-])[O-].[Na+].[Na+]` has a reported half-life of < 15 min

half-life measured on `COc1cc(/C=C/C(=O)c2ccc(Cl)cc2)ccc1OC(=O)[C@H](N)CO.Cl` = < 5 min

Lookup result for `COc1cc(/C=C/C(=O)c2ccc(Cl)cc2)ccc1OS(=O)(=O)[O-].[Na+]` ; measured half-life: 30 min

The reported value for `COc1cc(/C=C/C(=O)c2ccc(Cl)cc2)ccc1O` in terms of half-life is > 360 min

====

# method: Half life in PBS buffer by LC-MS analysis
# Format: physicochemical
Answer each item with its documented half-life.

Measured half-life, `COc1cc(/C=C/C(=O)c2ccc(Cl)cc2)ccc1O` : > 10 h

half-life for `COc1cc(/C=C/C(=O)c2ccc(Cl)cc2)ccc1OS(=O)(=O)[O-].[Na+]` is > 10 h

Form: compound = `COc1cc(/C=C/C(=O)c2ccc(Cl)cc2)ccc1OC(=O)[C@H](N)CO.Cl` ; half-life = 0.2 h

Notebook: `COc1cc(/C=C/C(=O)c2ccc(Cl)cc2)ccc1OP(=O)([O-])[O-].[Na+].[Na+]` , half-life read as > 10 h

====

# method: Half life in mouse serum by LC-MS analysis
# Assay type: ADME, cell-free
measurement-name: half-life

# half-life of `COc1cc(/C=C/C(=O)c2ccc(Cl)cc2)ccc1OP(=O)([O-])[O-].[Na+].[Na+]` = 2 h

response.value for `COc1cc(/C=C/C(=O)c2ccc(Cl)cc2)ccc1O` (field: half-life) = > 10 h

// recorded half-life for `COc1cc(/C=C/C(=O)c2ccc(Cl)cc2)ccc1OC(=O)[C@H](N)CO.Cl` : < 0.0833 h

The recorded half-life for `COc1cc(/C=C/C(=O)c2ccc(Cl)cc2)ccc1OS(=O)(=O)[O-].[Na+]` is > 10 h

====

# measured-target: C-X-C chemokine receptor type 4 (Homo sapiens)
# Sequence (P61073 whole entry): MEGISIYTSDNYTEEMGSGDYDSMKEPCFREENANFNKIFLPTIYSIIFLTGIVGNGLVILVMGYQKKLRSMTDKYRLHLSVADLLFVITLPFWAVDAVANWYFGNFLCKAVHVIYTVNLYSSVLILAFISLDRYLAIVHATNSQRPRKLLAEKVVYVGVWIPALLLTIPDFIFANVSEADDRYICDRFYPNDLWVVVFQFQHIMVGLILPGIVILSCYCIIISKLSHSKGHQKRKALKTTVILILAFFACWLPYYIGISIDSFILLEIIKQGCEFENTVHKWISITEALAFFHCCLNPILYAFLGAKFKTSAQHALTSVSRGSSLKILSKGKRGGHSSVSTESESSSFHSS
# method: Inhibition of EGFP-tagged human CXCR4 expressed in HEK293 cells assessed as inhibition of CXCL12-TR binding at 5 uM incubated for 5 mins prior to CXCL12-TR addition by FRET assay
# Format: cell-based
measurement-name: inhibition (%)
Value expressed in %; do not type the unit.

Entry `COc1cc(/C=C/C(=O)c2ccc(Cl)cc2)ccc1OS(=O)(=O)[O-].[Na+]` , inhibition reported as 4

The value of inhibition measured for the compound `COc1cc(/C=C/C(=O)c2ccc(Cl)cc2)ccc1OC(=O)[C@H](N)CO.Cl` turned out to be 15

Looking up `COc1cc(/C=C/C(=O)c2ccc(Cl)cc2)ccc1OP(=O)([O-])[O-].[Na+].[Na+]` , I see its inhibition listed as 5

Value of measured inhibition for the entry `COc1cc(/C=C/C(=O)c2ccc(Cl)cc2)ccc1O` : 90
